Listing of recorded relative viability by entry.
Test system: NCI-H2347
Assay Info: relative viability (nuclei count vs DMSO), 5 days (fraction); higher = more cells survive
Assay Context: first compound 4 µM
Measure Name: relative viability

Compound | Observed Measurement
COc1cc(N2CCC(C(N)=O)CC2)ccc1Nc1nc(N)c(Cl)c(Nc2ccccc2S(=O)(=O)C(C)C)n1 [HG-5-88-01] + O=C(c1cc(Cc2n[nH]c(=O)c3ccccc23)ccc1F)N1CCN(C(=O)C2CC2)CC1 [Olaparib] (partner 8 µM) | 0.549
COc1cc(N2CCC(C(N)=O)CC2)ccc1Nc1nc(N)c(Cl)c(Nc2ccccc2S(=O)(=O)C(C)C)n1 [HG-5-88-01] + COc1cccc2cc(-c3nc([C@H]4CC[C@H](C(=O)O)CC4)n4ncnc(N)c34)[nH]c12 [OSI-027] (partner 0.5 µM) | 0.274
COc1cc(N2CCC(C(N)=O)CC2)ccc1Nc1nc(N)c(Cl)c(Nc2ccccc2S(=O)(=O)C(C)C)n1 [HG-5-88-01] + Nc1ncn([C@H]2C[C@H](O)[C@@H](CO)O2)c(=O)n1 [Decitabine] (partner 2 µM) | 0.645
COc1cc(N2CCC(C(N)=O)CC2)ccc1Nc1nc(N)c(Cl)c(Nc2ccccc2S(=O)(=O)C(C)C)n1 [HG-5-88-01] + CC(=O)c1c(C)c2cnc(Nc3ccc(N4CCNCC4)cn3)nc2n(C2CCCC2)c1=O [Palbociclib] (partner 0.5 µM) | 0.425
